# Assay Target: T1, mouse TNFR1 (recombinant, R&D Systems cat no. 425-R1-050/CF, biotinylated) (mouse, UniProt P25118 22-212, biotinylated with EZ-Link NHS-LC-LC-biotin)
# T1 construct: also called murine TNFR1; biotinylated mouse TNFR1
# T1 sequence (looked up): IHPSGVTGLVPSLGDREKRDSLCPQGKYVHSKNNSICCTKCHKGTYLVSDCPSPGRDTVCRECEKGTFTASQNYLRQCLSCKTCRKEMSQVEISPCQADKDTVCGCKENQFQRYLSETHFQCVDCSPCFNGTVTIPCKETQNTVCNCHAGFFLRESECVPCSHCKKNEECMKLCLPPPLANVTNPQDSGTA
# Experiment Description: BIAcore, mouse TNFR1 on SA chip
Field: koff. Provide a value for each of the binders that follow.
Write the number in s⁻¹ without appending the unit.

Specify reported koff for the binder shown: DOM1h-574-139 (other, VH dAb) VH: EVQLLESGGGLVQPGGSLRLSCAASGFTFLKYSMGWVRQAPGKGLEWVSQISDTADRTYYAHSVKGRFTISRDNSKNTLYLQMNSLRAEDTAVYYCAIYTGRWAPFEYWGQGTLVTVSS 0.0003

Tell me its koff given DOM1h-574-156 (other, VH dAb) VH: EVQLLESGGGLVQPGGSLRLSCAASGFTFFKYSMGWVRQAPGKGLEWVSQISDTADRTYYAHSVKGRFTISRDNSKNTLYLQMNSLRAEDTAVYYCAIYTGRWVPFEYWGQGTLVTVSS as the entry. 0.0003
